Target: DAR-2 (Drosophila melanogaster, UniProt Q7KRX1)
Sequence (Q7KRX1 entry or part of it): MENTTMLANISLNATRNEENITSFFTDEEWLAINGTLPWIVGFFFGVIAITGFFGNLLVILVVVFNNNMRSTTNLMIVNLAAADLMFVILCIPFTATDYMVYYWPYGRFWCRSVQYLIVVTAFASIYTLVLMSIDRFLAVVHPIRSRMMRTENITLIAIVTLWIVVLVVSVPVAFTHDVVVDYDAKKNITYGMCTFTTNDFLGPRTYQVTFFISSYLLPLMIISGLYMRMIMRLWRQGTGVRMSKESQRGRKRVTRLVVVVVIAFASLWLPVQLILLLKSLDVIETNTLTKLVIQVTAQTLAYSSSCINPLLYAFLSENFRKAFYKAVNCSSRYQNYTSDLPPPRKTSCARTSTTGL
Assay: DAR-2 (allatostatin receptor) calcium response FLIPR assay in transfected CHO cells
Settings: CHO cells transfected with DAR-2 DNA; calcium signal (Fluo-3AM, FLIPR)
pIC50: −log10 of the molar value.
The reader will find reported pIC50 values listed item by item below.
Measured quantity: pIC50

>>> value_observed("CC(=O)Nc1ccc(C(=O)CSc2nnc(-c3ccncc3)n2-c2ccccc2)cc1")
6.53
>>> value_observed("O=C(CSc1nnc(-c2ccncc2)n1-c1ccccc1)c1ccc2c(c1)OCCO2")
6.36
>>> value_observed("O=C(CSc1nnc(-c2ccncc2)n1-c1ccccc1)c1ccc2[nH]c(=O)oc2c1")
5.35
>>> value_observed("COc1ccc(C(=O)CSc2nnc(-c3ccncc3)n2-c2ccccc2)cc1")
7.27

* * *

Biological target: DAR-2 (Drosophila melanogaster)
Experiment: DAR-2 (allatostatin receptor) calcium response FLIPR assay in transfected CHO cells
Conditions: CHO cells transfected with DAR-2 DNA; calcium signal (Fluo-3AM, FLIPR)
pIC50: −log10 of the molar value.
Measured quantity: pIC50

>>> value_observed("O=C(CSc1nnc(-c2ccncc2)n1-c1ccccc1)c1ccc(Cl)cc1")
7.11
>>> value_observed("COc1ccc(C(=O)CSc2nnc(-c3ccc(OC)cc3)n2-c2ccccc2)cc1")
11.85
>>> value_observed("O=C(CSc1nnc(-c2ccncc2)n1-c1ccccc1)c1ccc(Cl)cc1Cl")
5.92
>>> value_observed("O=C(CSc1nnc(-c2ccncc2)n1-c1ccccc1)c1ccc(F)cc1")
6.57
>>> value_observed("O=C(CSc1nnc(-c2ccncc2)n1-c1ccccc1)c1ccccc1")
6.91
>>> value_observed("COc1ccc(-n2c(SCC(=O)c3ccc4c(c3)OCCO4)nnc2-c2ccncc2)cc1")
6.99
>>> value_observed("CC(=O)Nc1ccc(C(=O)CSc2nnc(-c3ccncc3)n2-c2ccccc2)cc1[N+](=O)[O-]")
6.12

Where these numbers come from: patent US20040171650A1
